- TARGET: α4β1 integrin (Jurkat T-cell adhesion to IL-1 stimulated endothelial cell monolayers) (Homo sapiens, UniProt P05556+P13612)
- Construct: a T-cell line, Jurkat, known to express the α4β1 integrin
- PROTOCOL_SUMMARY: Jurkat-endothelial cell adhesion assay (Jurkat EC)
- EXPERIMENTAL_CONDITIONS: Jurkat cells on IL-1 stimulated human umbilical vein endothelial cells; read-out: JK/EC (Jurkat EC Assay IC50 value range)
# Lookup of reported IC50 keyed by entry
PARAMETER_MEASURED: IC50

# COMPOUND, RESULT
records = [
    ("COC(=O)[C@H](Cc1ccc(OCc2c(Cl)cccc2Cl)cc1)NC(=O)[C@H]1CSCN1C(=O)OCc1ccccn1 (relative stereo)", "≥ 1 µM"),
    ("COC(=O)[C@H](Cc1ccc(OCc2c(Cl)cccc2Cl)cc1)NC(=O)[C@H]1CSCN1C(=O)OCCN1CCOCC1 (relative stereo)", "≤ 0.25 µM"),
    ("CC(C)(CC(=O)O)CC(=O)N1CCC(C(=O)N[C@@H](Cc2ccc(NC(=O)c3c(Cl)cccc3Cl)cc2)C(=O)O)CC1", "≥ 1 µM"),
    ("COC(=O)[C@H](Cc1ccc(NC(=O)c2c(Cl)cccc2Cl)cc1)NC(=O)[C@H]1CSCN1C(=O)N(CCO)CCO", "≥ 1 µM"),
    ("O=C(O)c1cccc(C(=O)N2CCCC[C@@H]2C(=O)N[C@@H](Cc2ccc(NC(=O)c3c(Cl)cccc3Cl)cc2)C(=O)O)n1", "≤ 0.25 µM"),
    ("COC(=O)[C@H](Cc1ccc(NC(=O)c2c(Cl)cccc2Cl)cc1)NC(=O)[C@@H]1N(C(C)=O)C(C)(C)SC1(C)C", "≥ 1 µM"),
]

----------
# Lookup of reported pIC50 keyed by entry
- TARGET: α4β1 integrin (Jurkat cell adhesion to immobilized CS-1 derived peptide CLHPGEILDVPST) (Homo sapiens, UniProt P05556+P13612)
- Construct: 100 μl of Jurkat cells (2.5×10^6 cells/ml) in DMEM plus BSA
- Sequence (P13612 34-1032): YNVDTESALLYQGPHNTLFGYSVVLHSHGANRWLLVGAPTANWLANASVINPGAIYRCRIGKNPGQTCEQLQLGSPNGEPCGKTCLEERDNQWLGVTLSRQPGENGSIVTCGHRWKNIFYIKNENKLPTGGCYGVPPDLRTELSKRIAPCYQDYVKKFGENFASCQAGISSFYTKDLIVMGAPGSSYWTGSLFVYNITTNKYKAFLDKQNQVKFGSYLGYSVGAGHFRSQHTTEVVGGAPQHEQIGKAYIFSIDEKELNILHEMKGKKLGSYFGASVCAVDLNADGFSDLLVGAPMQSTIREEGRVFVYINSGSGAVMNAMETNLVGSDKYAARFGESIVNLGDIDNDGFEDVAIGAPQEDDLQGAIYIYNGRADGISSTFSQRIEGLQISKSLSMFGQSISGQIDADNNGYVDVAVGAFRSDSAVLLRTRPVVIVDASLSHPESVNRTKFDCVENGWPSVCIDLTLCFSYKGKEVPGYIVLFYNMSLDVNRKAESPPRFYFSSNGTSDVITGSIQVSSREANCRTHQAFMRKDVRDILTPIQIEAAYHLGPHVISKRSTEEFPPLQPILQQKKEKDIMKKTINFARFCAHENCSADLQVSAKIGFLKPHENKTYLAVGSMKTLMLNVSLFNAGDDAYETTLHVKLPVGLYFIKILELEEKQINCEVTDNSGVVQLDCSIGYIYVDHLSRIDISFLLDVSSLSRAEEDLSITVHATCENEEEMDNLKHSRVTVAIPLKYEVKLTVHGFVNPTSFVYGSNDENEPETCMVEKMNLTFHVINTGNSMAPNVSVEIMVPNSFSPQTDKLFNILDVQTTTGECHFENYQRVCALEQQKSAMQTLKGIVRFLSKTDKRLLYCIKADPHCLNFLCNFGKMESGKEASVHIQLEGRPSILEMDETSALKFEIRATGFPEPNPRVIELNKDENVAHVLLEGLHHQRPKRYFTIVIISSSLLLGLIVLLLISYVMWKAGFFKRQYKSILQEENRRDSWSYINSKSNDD
- Sequence (P05556 21-798): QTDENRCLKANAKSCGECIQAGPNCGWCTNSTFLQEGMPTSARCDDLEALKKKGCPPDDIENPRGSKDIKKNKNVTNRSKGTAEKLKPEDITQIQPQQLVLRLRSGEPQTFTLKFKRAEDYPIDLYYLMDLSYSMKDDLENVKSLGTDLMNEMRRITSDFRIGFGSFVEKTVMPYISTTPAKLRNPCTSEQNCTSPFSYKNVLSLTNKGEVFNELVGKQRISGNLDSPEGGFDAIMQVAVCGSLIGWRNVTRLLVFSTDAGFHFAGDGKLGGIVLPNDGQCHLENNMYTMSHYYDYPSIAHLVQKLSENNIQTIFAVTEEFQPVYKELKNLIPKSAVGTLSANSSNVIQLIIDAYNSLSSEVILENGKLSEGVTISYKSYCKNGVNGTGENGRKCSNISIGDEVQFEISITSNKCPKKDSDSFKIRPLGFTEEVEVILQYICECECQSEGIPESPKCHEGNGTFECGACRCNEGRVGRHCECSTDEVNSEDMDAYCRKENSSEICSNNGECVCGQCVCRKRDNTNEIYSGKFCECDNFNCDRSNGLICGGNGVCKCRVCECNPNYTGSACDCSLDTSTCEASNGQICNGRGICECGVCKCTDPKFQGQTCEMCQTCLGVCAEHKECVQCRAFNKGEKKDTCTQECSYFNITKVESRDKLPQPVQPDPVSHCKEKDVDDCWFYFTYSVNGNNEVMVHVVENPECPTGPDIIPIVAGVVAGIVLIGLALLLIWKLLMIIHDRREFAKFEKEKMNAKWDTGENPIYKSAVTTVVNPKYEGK
- PROTOCOL_SUMMARY: Jurkat-CS-1 assay
- EXPERIMENTAL_CONDITIONS: Jurkat cells on CS-1 peptide coated plates; read-out: JK/CS-1 (Jurkat CS-1 Assay IC50 value range)
pIC50: −log10 of the molar value.

# LINE_NOTATION, pIC50
measured = [
    ("O=C(O)c1ccc(C(=O)N2CCCC[C@H]2C(=O)N[C@@H](Cc2ccc(NC(=O)c3c(Cl)cccc3Cl)cc2)C(=O)O)nc1", "6.12 to 7.30"),
    ("O=C(O)c1ccccc1C(=O)N1CCC[C@H]1C(=O)N[C@@H](Cc1ccc(NC(=O)c2c(Cl)cccc2Cl)cc1)C(=O)O", "6.12 to 7.30"),
    ("O=C(Nc1ccc(C[C@H](NC(=O)[C@H]2CSCN2S(=O)(=O)c2ccc(C(F)(F)F)cn2)C(=O)O)cc1)c1c(Cl)cccc1Cl", "6.12 to 7.30"),
]

----------
- TARGET: α4β1 integrin (Jurkat cell adhesion to immobilized CS-1 derived peptide CLHPGEILDVPST) (Homo sapiens, UniProt P05556+P13612)
- Construct: 100 μl of Jurkat cells (2.5×10^6 cells/ml) in DMEM plus BSA
- PROTOCOL_SUMMARY: Jurkat-CS-1 assay
- EXPERIMENTAL_CONDITIONS: Jurkat cells on CS-1 peptide coated plates; read-out: JK/CS-1 (Jurkat CS-1 Assay IC50 value range)
pIC50: −log10 of the molar value.
# Lookup of reported pIC50 keyed by entry

# COMPOUND, pIC50
records = [
    ("CCOC(=O)N1[C@@H](C(=O)N[C@@H](Cc2ccc(NC(=O)c3c(Cl)cccc3Cl)cc2)C(=O)O)CSC12CCCCC2 (relative stereo)", "≤ 6.12"),
    ("O=C(O)CCC(=O)N1CSC[C@H]1C(=O)N[C@@H](Cc1ccc(NC(=O)c2c(Cl)cccc2Cl)cc1)C(=O)O (relative stereo)", "6.12 to 7.30"),
    ("CCOC(=O)N1CSC[C@@H]1C(=O)N[C@@H](Cc1ccc(NC(C)=O)cc1)C(=O)O", "≤ 6.12"),
]

Hello, the source for this data is patent US6685617B1, in case you need it.
